Target: CDK6/Cyclin D1 (Homo sapiens, UniProt Q00534)
Sequence (Q00534 whole entry): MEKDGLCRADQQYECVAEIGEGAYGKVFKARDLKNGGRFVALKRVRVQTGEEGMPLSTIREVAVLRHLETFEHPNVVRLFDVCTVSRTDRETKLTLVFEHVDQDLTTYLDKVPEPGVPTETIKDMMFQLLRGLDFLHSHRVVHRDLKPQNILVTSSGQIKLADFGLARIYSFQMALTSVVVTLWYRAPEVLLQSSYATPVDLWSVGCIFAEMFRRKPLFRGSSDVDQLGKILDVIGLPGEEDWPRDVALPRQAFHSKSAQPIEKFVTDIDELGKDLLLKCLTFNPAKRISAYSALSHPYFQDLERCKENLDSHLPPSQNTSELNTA
Sequence (P24385 whole entry partner): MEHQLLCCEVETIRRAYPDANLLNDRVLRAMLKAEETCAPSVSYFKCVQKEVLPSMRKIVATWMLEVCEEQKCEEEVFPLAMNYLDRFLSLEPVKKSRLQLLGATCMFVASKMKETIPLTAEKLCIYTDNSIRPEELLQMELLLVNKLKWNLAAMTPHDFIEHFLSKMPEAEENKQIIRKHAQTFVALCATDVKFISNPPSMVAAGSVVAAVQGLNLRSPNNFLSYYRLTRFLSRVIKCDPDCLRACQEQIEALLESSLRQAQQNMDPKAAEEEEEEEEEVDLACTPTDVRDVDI
Experiment: NanoBRET live-cell target engagement, NanoLuc-CDK6/Cyclin D1 in HEK-293
Assay type: binding
Conditions: CDK6/D1; 10µM
Recorded Inhibition at 10µM (%) Replicate 2 by entry
Unit % implied. Number only.

Example results:
molecule: CCC(CO)Nc1nc(Nc2cccc(-c3ccccn3)c2)c2ncn(C(C)C)c2n1.Cl.O [(R) - DRF053]
Inhibition at 10µM (%) Replicate 2: 6.7

molecule: CC(C)c1cnn2c(NCc3ccccc3)cc(N[C@@H](CO)[C@H](O)CO)nc12
Inhibition at 10µM (%) Replicate 2: 87.3

molecule: CNC1CCN(C(=O)c2ccc(Nc3ncc(F)c(-c4cnc(C)n4C(C)C)n3)cc2)C1 (stereo not shown)
Inhibition at 10µM (%) Replicate 2: 100.6

Below: the item to evaluate.
I'd like to know its Inhibition at 10µM (%) Replicate 2. The molecule in question is "O=C(Nc1c[nH]nc1-c1ccccn1)c1nn(C2CCNCC2)cc1Cl"
5.4

###

Target: CDK6/Cyclin D1 (Homo sapiens)
Experiment: NanoBRET live-cell target engagement, NanoLuc-CDK6/Cyclin D1 in HEK-293
Assay type: binding
Conditions: CDK6/D1; experiment 1; read-out: Inhibition at 10µM (%)
Recorded inhibition at 10 µM by entry
Unit % implied. Number only.

Example results:
compound: COc1ccccc1-c1cc(Nc2cccc(CS(N)(=O)=O)c2)ncn1
inhibition at 10 µM (%): 31.9

compound: CC(C)c1cnn2c(NCc3ccccc3)cc(NC[C@H]3CCNC[C@@H]3O)nc12
inhibition at 10 µM (%): 20.2

compound: CN1CCN(c2ccc(Nc3ncc4cc(C#N)c(=O)n(C5CCCC5)c4n3)cc2)CC1
inhibition at 10 µM (%): 96.9

compound: CC(C)N1CCN(c2ccc(Nc3ncc4cc5n(c4n3)C3(CCCCC3)CNC5=O)nc2)CC1
inhibition at 10 µM (%): 97

compound: COC1CN(C(=O)c2ccc3c(N)ncc(-c4ccc(-c5cnn(C)c5)cc4)c3n2)C1
inhibition at 10 µM (%): 15.1

Return inhibition at 10 µM measured with CDK6/Cyclin D1 (Homo sapiens) given this compound: "CN1CCN(Cc2ccc(NC(=O)Nc3ccc(Oc4ccnc(N)n4)cc3)cc2C(F)(F)F)CC1"
23.8

Then COc1ccc(F)cc1-c1cc(NC(=O)C2CCCNC2)ncc1Cl (centres unmarked) ?
76.2

Then "N#CCNC(=O)c1ccc(-c2ccnc(Nc3ccc(N4CCOCC4)cc3)n2)cc1" ?
50.7

###

Target: CDK6/Cyclin D1 (Homo sapiens)
Assay: NanoBRET live-cell target engagement, NanoLuc-CDK6/Cyclin D1 in HEK-293
Format: binding
Details: CDK6/D1; average (± SEM where n=3); read-out: IC50
Please use met for IC50 under 20 nM and not met for everything else, ties included.

molecule: CNc1nc(C)c(-c2nc(Nc3cccc(S(N)(=O)=O)c3)ncc2F)s1 [CDKI-73]
label_value: met
--
molecule: N#CCNC(=O)c1ccc(-c2ccnc(Nc3ccc(N4CCOCC4)cc3)n2)cc1 [Momelotinib]
label_value: not met
--
molecule: CN1CCC(c2c(O)cc(O)c3c(=O)cc(-c4ccccc4Cl)oc23)C1CO (centres unmarked) [P276-00]
label_value: not met
--
molecule: CS(=O)(=O)N1CCC(NC(=O)c2[nH]ncc2NC(=O)c2c(Cl)cccc2Cl)CC1 [NVP-LCQ195]
label_value: met

# ---- query molecule ----
Hello, is IC50 of the following molecule strictly smaller than 20 nM? CC(C)c1cnn2c(NCc3ccccc3-n3cccn3)nc(OC3CCCNC3)nc12 (centres unmarked) [LDC4297]
not met
